METHOD: Confirmation screen for delayed death inhibitors of the malarial parasite plastid, 48 hour incubation; further: nearly all actives have a fitted effect of over 65% in size
COND: P. falciparum-infected erythrocytes, luciferase growth; series mostly up to 28.7 µM
Among all 2,300 compounds or so, about 1,200 (52%) were called active. Not shown: some 34% with an inconclusive outcome. The call rests on the fitted dose curve; in most records, active means well fitted inhibition curve with a large enough effect; inconclusive means small, poorly fitted or top-dose-only effect, or effect the other way; inactive means no such curve, though single readings can be large or run the other way. So high a share suggests a set chosen from earlier hits. Some of the results follow.
Valid outcomes are listed here; reply with one: active, inactive

Record excerpt, results attached:
# COMPOUND, CAT
records = [
    ("CCC(=O)N1CCc2cc(S(=O)(=O)N3CCN(c4cc(Cl)ccc4C)CC3)ccc21", "inactive"),
    ("C#CCn1c(S(=O)(=O)Cc2ccc(C)cc2)nc(-c2ccccc2)c1-c1ccccc1", "active"),
    ("C=C1C(=O)O[C@@H]2[C@H]1CC[C@H](C)[C@]1(O)CCC(=O)[C@@]21C", "active"),
    ("CCC1CCCCN1CCCNC(=O)CNC(=O)c1nn(-c2ccc(OC)c(Cl)c2)c(=O)c2ccccc12 (stereo unspecified)", "active"),
    ("Nc1nc(C2CC2)c(Sc2sc(N)nc2C2CC2)s1", "inactive"),
]

Consider the record given below.
Ask: Per the records of this test, what outcome belongs to "N#Cc1cc(S(=O)(=O)c2ccccc2)c(N)[nH]c1=O" ?
Result: inactive
